The following compounds are shown together with reported activity coefficient values.
# method.summary: activity coefficient (dimensionless); of the first substance listed, at infinite dilution; xn = mol fraction of the nth substance listed
# recorded.conditions: 328.15 K; Liquid; Chromatography; x1 = 0

Return activity coefficient for the following compound: C#CCCC [1-pentyne] + CCCCn1cc[n+](C)c1.N#CN=C=[N-]
3.94

Specify activity coefficient for CCOC(C)=O [ethyl acetate] + CCCCn1cc[n+](C)c1.N#CN=C=[N-] and stop.
2.68

Report measured activity coefficient; entry is CCC[N+](=O)[O-] [1-nitropropane] + CCCCn1cc[n+](C)c1.N#CN=C=[N-]
1.31

Look up activity coefficient of CCCC(C)=O [pentan-2-one] + CCCCn1cc[n+](C)c1.N#CN=C=[N-] and report it.
2.11

Output measured activity coefficient for this item: Cc1ccccc1C [1,2-dimethylbenzene] + CCCCn1cc[n+](C)c1.N#CN=C=[N-]
3.97
